# System: Trypanosoma cruzi
# method-summary: Trypanosoma cruzi phosphomannomutase and mannose-1-phosphate guanylyltransferase assay
# Assay type: functional
# Design: scale not given: direction of the effect not stated beside the values
# assay-conditions: 10 µM
Reported Percent Effect values follow for various molecules
Response body: numeric value in %, unit text excluded.

CN(C)c1cc(CNC(=O)c2ccc(F)cc2F)ccn1 : 5.62
O=C(Nc1ccccn1)C1=NN(c2ccccc2)C(=O)CN1 : 1.6
CCc1cccc(NS(=O)(=O)c2cc3c(c(C(=O)O)c2)OCCO3)c1 : -1.33

// Percent Effect lookup, key: CCOc1ccc(N(CC(=O)c2ccccc2)C2=NCCCCC2)cc1
3.21

// Percent Effect lookup, key: Cc1ccc(CC(=O)N2CSCC2C(=O)N(C)Cc2ccco2)o1 (centres undefined)
-2.89

// Percent Effect lookup, key: c1nc(N2CCCCC2Cn2cncn2)c2ccsc2n1 (centres undefined)
11.6

// Percent Effect lookup, key: O=C(NCCN1CCCCC1)c1nc(-c2ccc3cc[nH]c3c2)no1
4.71

// Percent Effect lookup, key: Cc1cc(F)c(S(=O)(=O)NCCCN2CCC(O)CC2)cc1F
-10.9

// Percent Effect lookup, key: O=C(c1cccc2cccnc12)N1CCCN(c2cccnn2)CC1
6.37

// Percent Effect lookup, key: CC(=O)N1CCCN(C(=O)c2csc(-c3ccc(C)cc3C)n2)CC1
7.15

// Percent Effect lookup, key: COc1ccccc1CC(=O)N1CCC(NCc2cc[nH]c2)CC1
4.92

// Percent Effect lookup, key: NC(=O)C1CCN(Cn2nc(-c3ccccc3)oc2=O)CC1
1.08

// Percent Effect lookup, key: O=S1(=O)c2ccccc2C2(CCN(Cc3ccccc3)C2)N1CC1CC1 (centres undefined)
1.18

// Percent Effect lookup, key: CCCn1ncc(CN2C[C@@H]3CCCN3C[C@@H]2CCSC)c1C
-5.93

// Percent Effect lookup, key: Cn1cc(CN(Cc2ccccc2)CC(O)c2cccs2)cn1 (centres undefined)
7.14

// Percent Effect lookup, key: C[C@@H]1C[C@@H]2CCN(C(=O)c3cnccn3)C[C@H]2O1
-1.95

// Percent Effect lookup, key: CCn1c(C(=O)N2CCN(C(=O)NC(C)C)CC2)cc2ccccc21
-3.37

* * *

Reported Percent Effect values follow for various compounds
# target-of-assay: Chromo domain-containing protein 1 (Saccharomyces cerevisiae (strain ATCC 204508 / S288c) (Baker's yeast)) (UniProt P32657)
# Sequence (P32657 whole entry, the tested form may be a part): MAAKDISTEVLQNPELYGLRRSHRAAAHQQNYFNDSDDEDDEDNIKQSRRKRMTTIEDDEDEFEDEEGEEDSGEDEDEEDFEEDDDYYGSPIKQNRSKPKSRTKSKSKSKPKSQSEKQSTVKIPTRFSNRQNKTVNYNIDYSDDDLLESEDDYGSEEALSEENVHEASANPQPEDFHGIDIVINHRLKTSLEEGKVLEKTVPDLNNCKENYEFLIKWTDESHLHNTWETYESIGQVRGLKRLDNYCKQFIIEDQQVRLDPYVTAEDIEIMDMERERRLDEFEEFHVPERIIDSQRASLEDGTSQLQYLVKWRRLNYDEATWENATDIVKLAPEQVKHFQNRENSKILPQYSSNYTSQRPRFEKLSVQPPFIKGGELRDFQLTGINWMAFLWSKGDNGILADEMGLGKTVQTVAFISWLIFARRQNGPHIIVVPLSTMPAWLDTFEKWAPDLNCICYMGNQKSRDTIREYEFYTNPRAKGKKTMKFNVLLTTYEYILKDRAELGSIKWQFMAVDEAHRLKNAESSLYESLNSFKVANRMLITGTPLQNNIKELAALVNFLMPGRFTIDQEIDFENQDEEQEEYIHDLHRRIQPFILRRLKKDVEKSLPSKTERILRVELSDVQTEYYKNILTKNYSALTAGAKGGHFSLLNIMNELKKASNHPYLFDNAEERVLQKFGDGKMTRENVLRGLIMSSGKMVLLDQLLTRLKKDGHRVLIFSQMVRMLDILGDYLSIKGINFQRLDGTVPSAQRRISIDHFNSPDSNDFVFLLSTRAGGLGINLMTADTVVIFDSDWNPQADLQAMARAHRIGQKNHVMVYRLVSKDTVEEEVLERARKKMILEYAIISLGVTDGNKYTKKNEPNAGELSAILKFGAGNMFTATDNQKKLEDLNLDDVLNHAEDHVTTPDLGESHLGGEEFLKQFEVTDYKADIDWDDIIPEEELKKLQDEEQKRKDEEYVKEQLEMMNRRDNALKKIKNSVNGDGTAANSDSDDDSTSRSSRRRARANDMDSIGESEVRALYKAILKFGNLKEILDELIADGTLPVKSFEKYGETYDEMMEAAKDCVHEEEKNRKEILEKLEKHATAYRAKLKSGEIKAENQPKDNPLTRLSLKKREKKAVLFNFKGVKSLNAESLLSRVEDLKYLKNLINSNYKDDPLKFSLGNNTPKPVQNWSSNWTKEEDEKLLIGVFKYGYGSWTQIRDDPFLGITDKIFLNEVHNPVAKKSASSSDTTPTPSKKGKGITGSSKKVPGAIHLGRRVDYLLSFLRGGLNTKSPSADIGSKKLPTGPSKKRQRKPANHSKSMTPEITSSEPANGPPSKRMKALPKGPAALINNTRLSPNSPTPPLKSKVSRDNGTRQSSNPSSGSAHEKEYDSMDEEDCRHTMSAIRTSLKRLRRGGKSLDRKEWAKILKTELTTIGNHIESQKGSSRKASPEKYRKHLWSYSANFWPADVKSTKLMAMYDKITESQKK
# method-summary: ScCHD-1 Enzyme Inhibition Assay; note: in the data most compounds retested in dose-response had high values
# Assay type: functional
# Design: scale not given: direction of the effect not stated beside the values
# assay-conditions: 30 µM
Give your result as the value with the unit written after it.

Completed entries (count: 2):
Cc1cc(N(C)Cc2noc(C)n2)n2nc(C)c(C)c2n1 : -4.2%
CCOc1ccc(CNCCCn2ccnc2)cc1Br : -10.4%

// Percent Effect lookup, key: Cc1cnn(C2CCCN(C(=O)c3ccc(N(C)C)nn3)C2)c1 (stereo not drawn)
-8.48%

// Percent Effect lookup, key: Cc1ccccc1-c1cncc(C2CCN(C(=O)CN(C)C)CC2)n1
-14.4%

// Percent Effect lookup, key: CN(Cc1csc(-c2cccs2)n1)C(=O)CCn1ccccc1=O
-4.75%

// Percent Effect lookup, key: Cc1cn2c(n1)CCC(NC(=O)c1ccc(CS(C)(=O)=O)cc1)C2 (stereo not drawn)
-9.28%

// Percent Effect lookup, key: O=C(c1ccc(C2CCCO2)s1)N1CCS(=O)(=O)CC1 (stereo not drawn)
-2.6%

// Percent Effect lookup, key: COc1ccc(CN2CCc3ncnc(C4CCOC4)c3CC2)cc1 (stereo not drawn)
-7.3%

// Percent Effect lookup, key: CN(CCn1nc2ccccn2c1=O)CC(=O)N1CCCC1
29.3%

src = ChEMBL document CHEMBL3988442
